Test system: ADP-induced aggregation in rabbit platelets
Assay: Inhibition of ADP-induced platelet aggregation in rabbit platelet rich plasma
Format: cell-based
Conditions: Oryctolagus cuniculus, Concentration of the test compound solution 10^-5 mole, read-out: Inhibition rate of ADP-induced aggregation
Given measured inhibition at 10 µM (stock), output yes if it is greater than or equal to 30% and no if not.

Determine whether this compound has inhibition at 10 µM (stock) no lower than 30%: COC(=O)C1=C(C)NC(C)=C(C(=O)OCCOc2cccc3c2CCC(=O)N3)C1c1cccc([N+](=O)[O-])c1 (stereo not shown)
no

Determine whether this compound has inhibition at 10 µM (stock) no lower than 30%: COC(=O)C1=C(C)NC(C)=C(C(=O)OCCN(C(=O)CCCOc2ccc3[nH]c(=O)ccc3c2)C2CCCCC2)C1c1ccccc1[N+](=O)[O-] (stereo not shown)
yes

Determine whether this compound has inhibition at 10 µM (stock) no lower than 30%: COC(=O)C1=C(C)NC(C)=C(C(=O)OCC(COc2ccc3c(c2)CCC(=O)N3)OC(C)=O)C1c1cccc([N+](=O)[O-])c1 (stereo not shown)
no

Determine whether this compound has inhibition at 10 µM (stock) no lower than 30%: COC(=O)C1=C(C)NC(C)=C(C(=O)OCCN(C(=O)CCCOc2ccc3c(c2)CCC(=O)N3)C2CCCCC2)C1c1ccccc1[N+](=O)[O-] (stereo not shown)
no

Determine whether this compound has inhibition at 10 µM (stock) no lower than 30%: COC(=O)C1=C(C)NC(C)=C(C(=O)OCCCOc2ccc3[nH]c(=O)ccc3c2)C1c1cccc([N+](=O)[O-])c1 (stereo not shown)
no

Determine whether this compound has inhibition at 10 µM (stock) no lower than 30%: COC(=O)C1=C(C)NC(C)=C(C(=O)OCCCOc2ccc3c(c2)CCC(=O)N3)C1c1cccc([N+](=O)[O-])c1 (stereo not shown)
no

Determine whether this compound has inhibition at 10 µM (stock) no lower than 30%: COC(=O)C1=C(C)NC(C)=C(C(=O)OCCN(C(=O)CCCOc2ccc3[nH]c(=O)ccc3c2)C2CCCCC2)C1c1cccc([N+](=O)[O-])c1 (stereo not shown)
yes

Determine whether this compound has inhibition at 10 µM (stock) no lower than 30%: COC(=O)C1=C(C)NC(C)=C(C(=O)OCCCOc2cccc3[nH]c(=O)ccc23)C1c1cccc([N+](=O)[O-])c1 (stereo not shown)
no

Determine whether this compound has inhibition at 10 µM (stock) no lower than 30%: COC(=O)C1=C(C)NC(C)=C(C(=O)OCCN(C(=O)CCCOc2ccc3[nH]c(=O)ccc3c2)C2CCCCC2)C1c1ccccc1 (stereo not shown)
yes

Determine whether this compound has inhibition at 10 µM (stock) no lower than 30%: COC(=O)C1=C(C)NC(C)=C(C(=O)OCCCOc2cccc3c2NC(=O)CC3)C1c1cccc([N+](=O)[O-])c1 (stereo not shown)
no

Determine whether this compound has inhibition at 10 µM (stock) no lower than 30%: COC(=O)C1=C(C)NC(C)=C(C(=O)OCCCOc2cccc3c2CCC(=O)N3)C1c1cccc([N+](=O)[O-])c1 (stereo not shown)
no

Determine whether this compound has inhibition at 10 µM (stock) no lower than 30%: COC(=O)C1=C(C)NC(C)=C(C(=O)OCCOc2ccc3[nH]c(=O)ccc3c2)C1c1cccc([N+](=O)[O-])c1 (stereo not shown)
no

Determine whether this compound has inhibition at 10 µM (stock) no lower than 30%: COC(=O)C1=C(C)NC(C)=C(C(=O)OCCCOc2ccc(O)c3c2CCC(=O)N3)C1c1cccc([N+](=O)[O-])c1 (stereo not shown)
no

Determine whether this compound has inhibition at 10 µM (stock) no lower than 30%: COC(=O)C1=C(C)NC(C)=C(C(=O)OCCOc2ccc3c(c2)CCC(=O)N3)C1c1cccc([N+](=O)[O-])c1 (stereo not shown)
no

Determine whether this compound has inhibition at 10 µM (stock) no lower than 30%: COC(=O)C1=C(C)NC(C)=C(C(=O)OCC(COc2ccc3[nH]c(=O)ccc3c2)OC(C)=O)C1c1cccc([N+](=O)[O-])c1 (stereo not shown)
yes

Determine whether this compound has inhibition at 10 µM (stock) no lower than 30%: COC(=O)C1=C(C)NC(C)=C(C(=O)OCCCCOc2cccc3[nH]c(=O)ccc23)C1c1cccc([N+](=O)[O-])c1 (stereo not shown)
no

Just for reference, patent US4564619A is where these values come from.
